Attribution: patent US20120135923A1

Target: T1, human melanocortin receptor subtype 5 (hMC5-R) (human, UniProt P33032 1-325)
T1 construct: whole, on cells; membranes of CHO-K1 cells
T1 sequence (P33032 whole entry): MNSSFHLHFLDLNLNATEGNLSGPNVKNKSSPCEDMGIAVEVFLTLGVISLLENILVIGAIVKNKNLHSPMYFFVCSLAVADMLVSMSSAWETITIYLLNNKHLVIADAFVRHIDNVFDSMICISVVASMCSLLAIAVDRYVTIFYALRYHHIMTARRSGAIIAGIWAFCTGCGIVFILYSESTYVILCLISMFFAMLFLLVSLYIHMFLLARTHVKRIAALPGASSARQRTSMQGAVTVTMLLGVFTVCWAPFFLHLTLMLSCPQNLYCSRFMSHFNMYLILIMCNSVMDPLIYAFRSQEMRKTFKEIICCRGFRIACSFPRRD
Assay: [125I]-NDP-α-MSH competition, membranes
pKi: −log10 of the molar value. Bridge positions count the residues as written; N and C are the ends. Square brackets hold non-standard residues; d marks the D form. Ends that are not written are not given here. 1Nal = N[C@@H](Cc1cccc2ccccc12)C(=O)O; d2Nal = N[C@H](Cc1ccc2ccccc2c1)C(=O)O; Ac6c = NC1(C(=O)O)CCCCC1; Ac3c = NC1(C(=O)O)CC1; βAla = NCCC(=O)O

| binder | pKi |
| --- | --- |
| Ac-CEH[d2Nal]R[1Nal]ACPPKD[βAla]RRRRRQRRR-NH2 (disulfide 1-8) | 7.38 |
| Ac-CEH[d2Nal]RWACPPKD-NH2 (disulfide 1-8; SMILES CC(=O)N[C@H]1CSSC[C@@H](C(=O)N2CCC[C@H]2C(=O)N2CCC[C@H]2C(=O)N[C@@H](CCCCN)C(=O)N[C@@H](CC(=O)O)C(N)=O)NC(=O)[C@H](C)NC(=O)[C@H](Cc2c[nH]c3ccccc23)NC(=O)[C@H](CCCNC(=N)N)NC(=O)[C@@H](Cc2ccc3ccccc3c2)NC(=O)[C@H](Cc2c[nH]cn2)NC(=O)[C@H](CCC(=O)O)NC1=O) [Ac-c(Cys-Glu-His-D-2-Nal-Arg-Trp-Ala-Cys)-Pro-Pro-Lys-Asp-NH2] | 6.66 |
| GGCEH[dF]RWC-NH2 (disulfide 3-9; also: hydantoin ring from C(O) with Gly1-Gly2) [Hydantoin(C(O)-(Gly-Gly))-c(Cys-Glu-His-D-Phe-Arg-Trp-Cys)-NH2] | 7.13 |
| Ac-CEH[d2Nal]R[1Nal]ACPPKD[βAla]RKRRRQRRR-NH2 (disulfide 1-8) | 7.56 |
| CEHXRXACPPKDXYGRKKRRQRRR (N-terminal Ac; D-2-Nal at 4; 1-Nal at 6; β-Ala at 13; disulfide Cys1-Cys8; C-terminal NH2) | 7.65 |
| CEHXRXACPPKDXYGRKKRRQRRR (N-terminal Ac; D-2-Nal at 4; 2-Nal at 6; β-Ala at 13; disulfide Cys1-Cys8; C-terminal NH2) | 8.36 |
| D[Ac6c][d2Nal]RWK-NH2 (lactam 1-6; also: hydantoin ring: N-terminal N of Asp1 and backbone N of residue 2 bridged by one C(O), bridge at N via C(O), other end not in the chain) [c[Hydantoin(C(O)-(Asp-A6c))-D-2-Nal-Arg-Trp-Lys]-NH2] | 6.35 |
| D[Ac3c][d2Nal]RWK-NH2 (lactam 1-6; also: hydantoin ring: N-terminal N of Asp1 and backbone N of residue 2 bridged by one C(O), bridge at N via C(O), other end not in the chain) [c[Hydantoin(C(O)-(Asp-A3c))-D-2-Nal-Arg-Trp-Lys]-NH2] | 5.54 |
